Entry source: PubChem BioAssay (NCI)

# System: HT29 colon
# MEASUREMENT_NOTES: NCI tumour cell line growth inhibition, 48 h
PROPERTY_MEASURED: log10 of TGI (log10 of the value in µM)

{"columns": ["MOLECULE", "PROPERTY_MEASURED", "VALUE_MEASURED"],
 "data": [
  ["O=C1/C(=C/c2ccccc2)CCCC/C1=C\\c1ccccc1", "log10 of TGI", 1.51],
  ["CN1CCN(Cc2ccc(Nc3ncc(Cl)c(Nc4ccccc4S(=O)(=O)N(C)C)n3)cc2)CC1", "log10 of TGI", -0.24],
  ["C/C(=N/NC(=S)N1CCCC1)c1cccc(/C(C)=N\\NC(=S)N2CCCC2)n1", "log10 of TGI", 0.71],
  ["COC1/C=C\\OC2(C)Oc3c(C)c(O)c4c(O)c(c(CN(C)C)c(O)c4c3C2=O)NC(=O)/C(C)=C\\C=C/C(C)C(O)C(C)C(O)C(C)C(OC(C)=O)C1C (configuration not stated)", "log10 of TGI", 1.74],
  ["CNC1C(O)CC(OC2C/C=C(\\C)C/C(C)=C/C=C/CCC(C)CNC(=O)/C=C/C=C/C2C)OC1C (configuration not stated)", "log10 of TGI", -0.30]
]}

###

# System: HL-60(TB) leukemia
# MEASUREMENT_NOTES: NCI tumour cell line growth inhibition, 48 h
Here, each record is paired with measured TGI data.

{"columns": ["COMPOUND", "DISPLAY_UNIT", "LIMIT_SIGN", "TGI"],
 "data": [
  ["CCCC(=O)NNc1[nH]c(-c2ccc(OC)cc2)cc1C(=O)OCC", "µM", "=", 93.2],
  ["O=C(O)CNCc1c2ccccc2[n+]([O-])c2ccccc12", "µM", "=", 91.1],
  ["Nc1ccc(C(=O)NN2C(=O)C(Cl)C2c2ccccc2O)cc1 (centres undefined)", "µM", "=", 48],
  ["Cc1ccc(S(=O)(=O)n2cnc(CC(NC(=O)C3CCC(=O)N3C(=O)OCc3ccccc3)C(=O)N3CCCC3C(=O)NN)c2)cc1 (centres undefined)", "µM", ">", 100]
]}

###

# System: OVCAR-3 ovarian
# MEASUREMENT_NOTES: NCI tumour cell line growth inhibition, 48 h
A collection of compounds and their measured TGI
PROPERTY_MEASURED: TGI

{"columns": ["COMPOUND", "MEASURED_TARGET", "VALUE_MEASURED"],
 "data": [
  ["COc1cc(-c2nc3ccccc3s2)ccc1OCc1nc2n(n1)S(=O)(=O)c1ccccc1N2C", "OVCAR-3 ovarian", "> 100 µM"],
  ["Cc1cc(C)n(-c2c(O)ccc(O)c2-n2nc(C)cc2C)n1", "OVCAR-3 ovarian", "> 100 µM"],
  ["COc1ccc(-c2nc(-c3nc4cc(C)c(C)cc4[nH]3)cc3c2[nH]c2ccccc23)cc1", "OVCAR-3 ovarian", "4.6 µM"],
  ["CO[C@H](C(=O)N[C@@H](CCCCNC(=O)OCc1ccccc1)C(=O)OC(C)(C)C)[C@@H]1Cc2cc3cc(OC4CC(OC5CC(O)C(O)C(C)O5)C(O)C(C)O4)c(C)c(O)c3c(O)c2C(=O)[C@H]1OC1CC(OC2CC(OC3CC(C)(O)C(O)C(C)O3)C(O)C(C)O2)C(O)C(C)O1 (stereo partly drawn)", "OVCAR-3 ovarian", "> 10 µM"],
  ["COC(=O)C#Cc1ccc([N+](=O)[O-])cc1", "OVCAR-3 ovarian", "2.93 µM"],
  ["CNC1C(O)CC(OC2C/C=C(\\C)C/C(C)=C/C=C/CCC(C)CNC(=O)/C=C/C=C/C2C)OC1C (stereo not drawn)", "OVCAR-3 ovarian", "1.78 µM"],
  ["Cc1ccc2sc3c(NCCCNCCO)nc4ccccc4c3c(=O)c2c1", "OVCAR-3 ovarian", "3.26 µM"],
  ["CCC[CH2][Sn]([CH2]CCC)([S]C1=NCCS1)[S]C1=NCCS1", "OVCAR-3 ovarian", "1.87 µM"],
  ["COc1ccccc1N1C(=O)/C(=C\\c2cc(OC)c(OC)c(OC)c2)S(=O)(=O)C1c1ccccc1 (stereo not drawn)", "OVCAR-3 ovarian", "> 100 µM"],
  ["O=c1[nH]c(=O)n(C2CC(O)C(CO)O2)c2nc3ccc4ccccc4c3nc12 (stereo not drawn)", "OVCAR-3 ovarian", "> 100 µM"],
  ["Cc1ccc(C2=NO[C@@H]3C(=O)N(c4ccc(Cc5ccc(N6C(=O)[C@H]7C(c8ccc(C)cc8)=NO[C@H]7C6=O)cc5)cc4)C(=O)[C@H]23)cc1", "OVCAR-3 ovarian", "> 100 µM"],
  ["C/C(=C\\COP(=O)(O)OP(=O)(O)O)CC/C=C(\\C)CNc1ccc([N+](=O)[O-])cc1", "OVCAR-3 ovarian", "> 100 µM"],
  ["O=C1/C(=C/c2ccc(Cl)cc2)CN(C(=O)C(Cl)Cl)C/C1=C\\c1ccc(Cl)cc1", "OVCAR-3 ovarian", "0.407 µM"],
  ["COC(=O)C1C(=O)O[C@@H](c2ccc(OC)cc2OC)C1C(=O)OC (stereo partly drawn)", "OVCAR-3 ovarian", "> 100 µM"],
  ["COC(=O)c1cc(C#N)[nH]c1-c1cccs1", "OVCAR-3 ovarian", "> 100 µM"],
  ["CN1CCN(C(=S)N(C)C(=O)c2cccs2)CC1", "OVCAR-3 ovarian", "> 100 µM"],
  ["CC(C)(C)C(=O)Nc1cccc(-c2ccc[nH]2)n1", "OVCAR-3 ovarian", "> 100 µM"],
  ["Cn1cnc2c(NCc3ccccc3)nc(NCCO)nc21", "OVCAR-3 ovarian", "> 406 µM"],
  ["Cn1cc(C2=C(c3c4n(c5ccccc35)CCC(CN)CC4)C(=O)NC2=O)c2ccccc21 (stereo not drawn)", "OVCAR-3 ovarian", "8.75 µM"],
  ["C[C@@H]1OC2(O)[C@@H]3CCCN3C(=O)N(Cc3ccccc3)N2C1=O (stereo partly drawn)", "OVCAR-3 ovarian", "> 100 µM"],
  ["COC(=O)C(=O)C(C(=O)C(=O)Nc1cc([N+](=O)[O-])ccc1[N+](=O)[O-])c1nc2ccc(C(=O)c3ccccc3)cc2[nH]c1=O (stereo not drawn)", "OVCAR-3 ovarian", "> 100 µM"],
  ["CCOC(=O)c1c(NC(=O)c2ccc(OC)cc2)sc2c1CCCC2", "OVCAR-3 ovarian", "> 100 µM"],
  ["COc1ccc(C(=O)N2CCN(c3ccc4[nH]c(=O)oc4c3)CC2)cc1", "OVCAR-3 ovarian", "> 100 µM"]
]}
